Please provide measured inhibition at 1 µM for the entries that follow.
SYSTEM NAME: N-type Ca2+ channels in IMR-32 cells (Homo sapiens, UniProt Q00975)
Construct: host or cells: IMR-32 cells, differentiated with dibutyryl cAMP and bromodeoxyuridine
METHOD NOTES: Inhibition of N-type calcium flux in IMR-32 cells (Indo-1 fluorescence, nitrendipine present)
Format: cell-based
CONDITION PARAMETERS: IMR-32

CC(C)(C)OC(=O)[C@@H](Cc1ccc(OCc2ccccc2)cc1)NC(=O)[C@H](Cc1c[nH]c2ccccc12)NC(=O)N1CCCCCC1 [Example 17] | 41%

Please go through the list and note inhibition at 1 µM for each compound.
1. CC(C)CC(NC(=O)N1CCCCCC1)C(=O)NC(C)(Cc1ccc(OCc2ccccc2)cc1)C(=O)OC(C)(C)C (stereo not shown) [Example 11A]
2. CC(C)C[C@H](NC(=O)N1CCCCCC1)C(=O)N[C@@H](Cc1ccc(CCc2ccccc2)cc1)C(=O)NC(C)(C)C [Example 144]
3. CC(C)C[C@H](NC(=O)N1CCCCCC1)C(=O)N[C@@H](Cc1ccc(Cc2ccccc2)cc1)C(=O)NC(C)(C)C [Example 53]

Result string:
["61%", "61%", "61%"]

* * *

SYSTEM NAME: L-type Ca2+ channels in A10 cells (Rattus norvegicus)
Construct: which endogenously expresses L-type calcium channels
Sequence (P22002 whole entry): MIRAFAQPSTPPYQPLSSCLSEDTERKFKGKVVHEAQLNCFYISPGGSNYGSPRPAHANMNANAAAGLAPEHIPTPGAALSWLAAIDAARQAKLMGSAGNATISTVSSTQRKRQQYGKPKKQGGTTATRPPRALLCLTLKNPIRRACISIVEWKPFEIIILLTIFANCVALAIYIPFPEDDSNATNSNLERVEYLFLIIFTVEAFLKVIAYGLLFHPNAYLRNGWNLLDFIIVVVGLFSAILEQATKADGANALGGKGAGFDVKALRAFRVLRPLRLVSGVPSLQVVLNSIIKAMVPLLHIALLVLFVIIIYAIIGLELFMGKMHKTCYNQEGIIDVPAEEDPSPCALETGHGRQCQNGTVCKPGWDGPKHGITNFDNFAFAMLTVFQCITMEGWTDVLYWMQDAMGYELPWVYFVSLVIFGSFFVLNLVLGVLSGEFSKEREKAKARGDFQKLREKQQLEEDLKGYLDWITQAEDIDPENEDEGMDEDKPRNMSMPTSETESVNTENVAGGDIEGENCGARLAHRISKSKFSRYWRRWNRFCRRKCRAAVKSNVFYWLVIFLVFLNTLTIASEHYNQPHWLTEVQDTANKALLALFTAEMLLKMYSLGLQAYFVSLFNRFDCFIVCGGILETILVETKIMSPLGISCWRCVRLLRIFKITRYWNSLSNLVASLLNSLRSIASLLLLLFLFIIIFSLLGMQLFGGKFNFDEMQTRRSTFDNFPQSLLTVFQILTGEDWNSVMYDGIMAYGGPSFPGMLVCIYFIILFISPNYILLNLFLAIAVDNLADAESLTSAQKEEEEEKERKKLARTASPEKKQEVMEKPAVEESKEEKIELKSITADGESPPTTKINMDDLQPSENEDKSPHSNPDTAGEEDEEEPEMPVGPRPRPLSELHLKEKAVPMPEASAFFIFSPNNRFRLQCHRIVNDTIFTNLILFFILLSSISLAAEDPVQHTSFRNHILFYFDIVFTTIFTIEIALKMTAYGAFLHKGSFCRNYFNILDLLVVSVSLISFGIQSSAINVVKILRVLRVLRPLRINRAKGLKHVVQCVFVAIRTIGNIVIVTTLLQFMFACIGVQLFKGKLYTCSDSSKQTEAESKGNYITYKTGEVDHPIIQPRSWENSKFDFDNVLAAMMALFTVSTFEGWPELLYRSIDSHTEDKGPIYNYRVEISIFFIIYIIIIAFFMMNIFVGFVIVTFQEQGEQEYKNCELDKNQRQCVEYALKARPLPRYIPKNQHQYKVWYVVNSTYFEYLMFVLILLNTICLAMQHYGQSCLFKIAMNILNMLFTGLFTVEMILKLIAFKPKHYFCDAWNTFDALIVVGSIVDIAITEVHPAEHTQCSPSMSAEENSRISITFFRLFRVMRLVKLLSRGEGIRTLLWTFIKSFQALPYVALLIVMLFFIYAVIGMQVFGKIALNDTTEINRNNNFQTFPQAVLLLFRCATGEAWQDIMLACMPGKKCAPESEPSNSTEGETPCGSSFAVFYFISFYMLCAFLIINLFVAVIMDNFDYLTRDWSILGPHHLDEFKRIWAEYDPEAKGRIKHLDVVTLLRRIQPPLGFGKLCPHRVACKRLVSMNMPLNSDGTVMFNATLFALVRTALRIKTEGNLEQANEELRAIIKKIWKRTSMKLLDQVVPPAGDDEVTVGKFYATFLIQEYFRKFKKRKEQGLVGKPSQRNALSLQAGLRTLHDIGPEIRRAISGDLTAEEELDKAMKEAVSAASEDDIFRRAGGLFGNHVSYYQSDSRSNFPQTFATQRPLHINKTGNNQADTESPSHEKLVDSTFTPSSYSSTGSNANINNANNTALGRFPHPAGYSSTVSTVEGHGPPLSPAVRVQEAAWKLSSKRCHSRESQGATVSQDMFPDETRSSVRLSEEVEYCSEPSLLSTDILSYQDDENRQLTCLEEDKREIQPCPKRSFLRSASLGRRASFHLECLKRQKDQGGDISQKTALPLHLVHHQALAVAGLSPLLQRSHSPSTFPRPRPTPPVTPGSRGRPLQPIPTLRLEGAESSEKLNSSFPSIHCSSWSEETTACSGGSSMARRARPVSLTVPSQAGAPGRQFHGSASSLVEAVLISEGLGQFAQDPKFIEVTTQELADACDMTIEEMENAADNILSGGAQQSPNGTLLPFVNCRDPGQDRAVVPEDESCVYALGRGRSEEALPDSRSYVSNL
Sequence (P54290 25-944 partner limits assumed): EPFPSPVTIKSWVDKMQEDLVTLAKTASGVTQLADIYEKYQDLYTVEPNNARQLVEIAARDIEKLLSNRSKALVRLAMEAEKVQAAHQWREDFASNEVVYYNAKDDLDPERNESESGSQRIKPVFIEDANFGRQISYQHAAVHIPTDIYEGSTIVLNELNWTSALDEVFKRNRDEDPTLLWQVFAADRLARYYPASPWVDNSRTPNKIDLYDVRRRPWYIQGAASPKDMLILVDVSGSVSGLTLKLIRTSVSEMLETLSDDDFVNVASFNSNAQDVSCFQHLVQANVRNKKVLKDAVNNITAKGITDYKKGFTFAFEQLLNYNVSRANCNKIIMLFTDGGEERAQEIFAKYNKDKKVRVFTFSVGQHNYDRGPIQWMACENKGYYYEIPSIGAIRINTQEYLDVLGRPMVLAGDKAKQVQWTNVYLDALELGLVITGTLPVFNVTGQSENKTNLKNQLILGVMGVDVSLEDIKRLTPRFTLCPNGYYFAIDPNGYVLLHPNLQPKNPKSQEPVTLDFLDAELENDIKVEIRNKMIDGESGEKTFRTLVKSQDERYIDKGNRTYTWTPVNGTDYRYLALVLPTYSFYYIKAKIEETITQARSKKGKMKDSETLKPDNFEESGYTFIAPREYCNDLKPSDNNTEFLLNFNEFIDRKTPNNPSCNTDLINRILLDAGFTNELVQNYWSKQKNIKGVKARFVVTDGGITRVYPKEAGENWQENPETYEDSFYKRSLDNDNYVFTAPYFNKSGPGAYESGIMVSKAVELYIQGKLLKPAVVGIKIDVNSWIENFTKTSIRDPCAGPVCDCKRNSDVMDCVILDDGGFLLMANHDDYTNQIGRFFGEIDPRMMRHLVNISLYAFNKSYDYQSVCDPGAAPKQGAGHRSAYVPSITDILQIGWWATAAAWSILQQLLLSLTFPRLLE
Sequence (P54290 945-1091 partner limits assumed): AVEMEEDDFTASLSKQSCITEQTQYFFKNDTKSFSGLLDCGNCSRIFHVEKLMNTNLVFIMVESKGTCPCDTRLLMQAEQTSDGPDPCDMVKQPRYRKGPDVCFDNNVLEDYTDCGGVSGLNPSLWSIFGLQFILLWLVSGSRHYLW
Sequence (P54287 whole entry partner): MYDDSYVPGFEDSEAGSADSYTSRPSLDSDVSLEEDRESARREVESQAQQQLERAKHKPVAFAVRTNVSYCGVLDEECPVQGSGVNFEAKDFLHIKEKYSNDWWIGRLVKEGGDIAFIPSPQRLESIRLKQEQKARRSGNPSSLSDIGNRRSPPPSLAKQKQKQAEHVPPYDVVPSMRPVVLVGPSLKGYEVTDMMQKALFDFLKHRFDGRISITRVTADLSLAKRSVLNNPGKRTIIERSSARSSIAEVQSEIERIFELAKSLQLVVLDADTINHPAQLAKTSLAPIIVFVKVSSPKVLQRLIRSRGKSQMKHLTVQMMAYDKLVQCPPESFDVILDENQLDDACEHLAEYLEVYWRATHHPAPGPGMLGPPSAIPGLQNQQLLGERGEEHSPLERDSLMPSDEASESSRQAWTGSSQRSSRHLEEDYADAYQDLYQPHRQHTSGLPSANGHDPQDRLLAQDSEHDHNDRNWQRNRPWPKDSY
METHOD NOTES: Inhibition of L-type calcium flux in A10 cells (FLIPR)
Experimental: Measurement of L-type Ca^2+ Channel Blocking Potencies of Compounds in A10 cells Calcium flux through voltage-sensitive calcium channels was assessed by time-resolved monitoring of the fluorescence of pre-loaded calcium-sensitive dyes using FLIPR, a fluorescent image plate reader (Molecular Devices Co.). The A10 smooth muscle cell line derived from embryonic thoracic aorta of the DBIX rat (ATCC, CRL-1476) which endogenously expresses L-type calcium channels. […]
ENDPOINT LABEL: pIC50
One number for each entry, as −log10 of the molar value.

As a guide, the following entries are already answered.
CC(C)C[C@H](NC(=O)N1CCCCCC1)C(=O)N[C@@H](Cc1ccc(OCc2ccccc2)cc1)C(=O)NCCCn1ccnc1 [Example 237] | 5.66
CC(C)C[C@H](NC(=O)N1CCCCCC1)C(=O)N[C@@H](Cc1ccc(OCc2ccncc2)cc1)C(=O)OC(C)(C)C [Example 26] | 5.52

Query string: Can you share its pIC50? I mean this molecule: CC(C)C[C@H](NC(=O)N1CCCCCC1)C(=O)N[C@@H](Cc1ccc(C=CC2(O)CCCCC2)cc1)C(=O)NC(C)(C)C [Example 143]
Result string: 5.89

* * *

SYSTEM NAME: N-type Ca2+ channels in IMR-32 cells (Homo sapiens)
Construct: host or cells: IMR-32 cells, differentiated with dibutyryl cAMP and bromodeoxyuridine
METHOD NOTES: Inhibition of N-type calcium flux in IMR-32 cells (Indo-1 fluorescence, nitrendipine present)
Format: cell-based
CONDITION PARAMETERS: 1 μM
Kindly supply the reported Inhibition of Calcium Flux in IMR-32 Cells % Inhibition at 1 μM values for the records listed here.
Please answer using a numeric value trailed by its unit.

Solved cases (3 shown):
CC(C)C[C@H](NC(=O)N1CCCCCC1)C(=O)N[C@@H](Cc1ccc(OCc2ccccc2)cc1)C(=O)NCCc1c[nH]c2ccccc12 (relative stereo) | 50%
CC(C)C[C@H](NC(=O)N1CCCCCC1)C(=O)N[C@@H](Cc1ccc(OCc2ccccc2)cc1)C(=O)NCCC#N (relative stereo) | 50%
Cc1ccccc1S(=O)(=O)N[C@@H](CC(C)C)C(=O)N[C@@H](Cc1ccc(OCc2ccccc2)cc1)C(=O)OC(C)(C)C (relative stereo) | 29%

// moving on: another record for Inhibition of Calcium Flux in IMR-32 Cells % Inhibition at 1 μM
Query string: Which Inhibition of Calcium Flux in IMR-32 Cells % Inhibition at 1 μM value is on record for CC(C)C[C@H](NC(=O)c1ccco1)C(=O)C[C@H](Cc1ccc(OCc2ccccc2)cc1)C(=O)OC(C)(C)C (relative stereo) ?
Result string: 37%

* * *

SYSTEM NAME: N-type Ca2+ channels in IMR-32 cells (Homo sapiens, UniProt Q00975)
Construct: host or cells: IMR-32 cells, differentiated with dibutyryl cAMP and bromodeoxyuridine
METHOD NOTES: Inhibition of N-type calcium flux in IMR-32 cells (Indo-1 fluorescence, nitrendipine present)
Type: cell-based
CONDITION PARAMETERS: 10 μM
I'd appreciate it if you could supply Inhibition of Calcium Flux in IMR-32 Cells % Inhibition at 10 μM values for the items below.
Give bare numbers, in %.

Guide cases for Inhibition of Calcium Flux in IMR-32 Cells % Inhibition at 10 μM, answers given:
CC(C)C[C@H](NC(=O)N1CCCCCC1)C(=O)N[C@@H](Cc1ccc(OCc2cccc(N)c2)cc1)C(=O)OC(C)(C)C (relative stereo) | 87
CC(C)C[C@H](NC(=O)c1ccno1)C(=O)N[C@@H](Cc1ccc(OCc2ccccc2)cc1)C(=O)OC(C)(C)C (relative stereo) | 67
CC(C)C[C@H](NC(=O)C(C)(C)C)C(=O)N[C@@H](Cc1ccc(OCc2ccccc2)cc1)C(=O)OC(C)(C)C (relative stereo) | 74
CC(C)C[C@H](NC(=O)Cc1c[nH]c2ccccc12)C(=O)C[C@H](Cc1ccc(OCc2ccccc2)cc1)C(=O)OC(C)(C)C (relative stereo) | 83
CC(C)C[C@H](NC(=O)c1cnc2ccccc2n1)C(=O)N[C@@H](Cc1ccc(OCc2ccccc2)cc1)C(=O)OC(C)(C)C (relative stereo) | 28

Provide reported Inhibition of Calcium Flux in IMR-32 Cells % Inhibition at 10 μM for each item, in the same order as listed.
1. CC(C)C[C@H](NC(=S)Nc1ccc(C(C)(C)C)cc1)C(=O)N[C@@H](Cc1ccc(OCc2ccccc2)cc1)C(=O)OC(C)(C)C (relative stereo)
2. CC(C)C[C@H](NC(=O)c1ccco1)C(=O)C[C@H](Cc1ccc(OCc2ccccc2)cc1)C(=O)OC(C)(C)C (relative stereo)

Result string:
71
83

Query string: What measured Inhibition of Calcium Flux in IMR-32 Cells % Inhibition at 10 μM is associated with CC(C)C[C@H](NC(=O)NC1CCCCC1)C(=O)N[C@@H](Cc1ccc(OCc2ccccc2)cc1)C(=O)OC(C)(C)C (relative stereo) on N-type Ca2+ channels in IMR-32 cells (Homo sapiens, UniProt Q00975)?
Result string: 56

* * *

SYSTEM NAME: N-type Ca2+ channels in IMR-32 cells (Homo sapiens, UniProt Q00975)
Construct: host or cells: IMR-32 cells, differentiated with dibutyryl cAMP and bromodeoxyuridine
METHOD NOTES: Inhibition of N-type calcium flux in IMR-32 cells (Indo-1 fluorescence, nitrendipine present)
Format: cell-based
CONDITION PARAMETERS: IMR-32
Task for the reader: assign each of the following compounds its reported inhibition at 10 µM.
Answers are plain numbers, in %.

Examples with answers:
CC(C)C[C@H](NS(=O)(=O)c1ccc(C(C)C)cc1)C(=O)N[C@@H](Cc1ccc(OCc2ccccc2)cc1)C(=O)OC(C)(C)C | 91
CC(C)C[C@H](NC(=O)N1CCCCCC1)C(=O)N[C@@H](Cc1ccc(OCc2ccccc2)cc1)C(=O)OC(C)(C)C | 95
CC(C)C[C@H](NC(=O)N1CCCCCC1)C(=O)N[C@@H](Cc1ccc(OCc2ccccc2)cc1)C(=O)NCC1CC1 | 87
CC(C)C[C@H](NC(=O)N1CCCCCC1)C(=O)N[C@@H](Cc1ccc(C#CC2CCCCC2)cc1)C(=O)NC(C)(C)C | 64
COC(=O)[C@H](Cc1ccc(OCc2ccccc2)cc1)NC(=O)[C@H](CC(C)C)NC(=O)N1CCCCCC1 | 99
CC(C)C[C@H](NC(=O)N1CCCCCC1)C(=O)N[C@@H](Cc1ccc(OC(C)(C)C)cc1)C(=O)OC(C)(C)C | 95
CC(C)C[C@H](NC(=O)N1CCCCCC1)C(=O)N[C@@H](Cc1ccc(OCc2ccccc2)cc1)C(=O)N1CC(C)OC(C)C1 (stereo partly drawn) | 86
CC(C)C[C@H](NC(=O)N1CCCCCC1)C(=O)N[C@@H](Cc1ccc(OCc2ccc(C#N)cc2)cc1)C(=O)OC(C)(C)C | 92
CC(C)C[C@H](NS(=O)(=O)c1ccc(C(C)(C)C)cc1)C(=O)N[C@@H](Cc1ccc(OCc2ccccc2)cc1)C(=O)OC(C)(C)C | 86
CC(C)C[C@H](NC(=O)N1CCCCCC1)C(=O)N[C@@H](Cc1ccc(CCC2(O)CCCCC2)cc1)C(=O)NC(C)(C)C | 68

Each compound below has a reported value. Please supply its inhibition at 10 µM.
1. CC(C)CC(NC(=O)N1CCCCCC1)C(=O)NC(Cc1ccc(OCc2ccccc2)cc1)C(=O)NCC(O)CN (stereo not drawn)
2. CC(C)C[C@H](NC(=O)N1CCCCCC1)C(=O)N[C@@H](Cc1ccc(OCc2ccccc2)cc1)C(=O)NCCc1ccccn1
3. CC(=O)c1ccc(NC(=O)[C@H](Cc2ccc(OCc3ccccc3)cc2)NC(=O)[C@H](CC(C)C)NC(=O)N2CCCCCC2)cc1
4. CC(C)C[C@H](NC(=O)N1CCCCCC1)C(=O)N[C@@H](Cc1ccc(NCc2ccccc2)cc1)C(=O)NC(C)(C)C
5. CC(C)C[C@H](NC(=O)N1CCCCCC1)C(=O)N[C@@H](Cc1ccc(OCc2ccccc2)cc1)C(=O)NC1CC(C)(C)NC(C)(C)C1

Result string:
1. 23
2. 95
3. 66
4. 83
5. 70

Where these numbers come from: patent US6423689B1
